Test: Plasma pharmacokinetics after oral administration of YCHT in control (normal) rats, UHPLC-MS/MS
Format: in vivo, Sprague-Dawley rats
Conditions: Sprague-Dawley, rat, in vivo; control rats, oral YCHT 60 g/kg, plasma, n = 6; read-out: t 1/2 (converted)
Give measured half-life for each item. Keep answers brief.
Remember to follow the number with its unit.

Entry under test: Cc1cc(O)c2c(c1)C(=O)c1cc(O)cc(O)c1C2=O [Emodin] . Its half-life was 3.33 h

Entry COC(=O)C1=CO[C@@H](O[C@@H]2O[C@H](CO)[C@@H](O)[C@H](O)[C@H]2O)[C@@H]2C(CO)=CC[C@H]12 [Geniposide] , half-life reported as 3.55 h

// recorded half-life for O=C1c2cccc(O)c2C(=O)c2c(O)cc(CO)cc21 [Aloe-emodin] : 2.26 h

Entry source: paper PMC6241247
